Source listed as paper PMC8273893.

Test: Plasma stability
Type: in vitro ADME
Conditions: 5 μM, 50% human plasma in PBS, 1 h, 37 °C
result type: plasma stability (% remaining)

Examples from the recorded data:
>  <compound>
O=C(O)c1ccc(OCc2c(-c3c(Cl)cccc3C(F)(F)F)noc2-c2ccc[nH]2)cc1

>  <unit info>
% remaining

>  <plasma stability (% remaining)>
89.5

$$$$
>  <compound>
O=C(O)c1ccc(OCc2c(-c3c(Cl)cccc3C(F)(F)F)noc2-c2cc[nH]c2)cc1

>  <unit info>
% remaining

>  <plasma stability (% remaining)>
74.2

$$$$
>  <compound>
O=C(O)c1ccc(OCc2c(-c3c(Cl)cccc3C(F)(F)F)noc2-c2cn[nH]c2)cc1

>  <unit info>
% remaining

>  <plasma stability (% remaining)>
100

$$$$

(a) O=C(O)c1ccc(OCc2c(-c3c(Cl)cccc3C(F)(F)F)noc2-c2cc[nH]c2)cc1F
(b) O=C(O)c1ccc(/C=C/c2c(-c3c(Cl)cccc3C(F)(F)F)noc2-c2cc[nH]c2)cc1
Query: # query: argmin of plasma stability (% remaining) over a and b Give the label of your selection.
Result: b
(b: 59.5 % remaining, a: 97.1 % remaining)

====

Assay: Parallel artificial membrane permeability assay
Format: in vitro ADME
Settings: 500 μM in donor, 20 h
result type: PAMPA (% flux)

Examples from the recorded data:
>  <compound>
O=C(O)c1ccc(OCc2c(-c3c(Cl)cccc3C(F)(F)F)noc2-c2cc[nH]c2)cc1

>  <unit info>
% flux

>  <reported>
40.9

$$$$
>  <compound>
O=C(O)c1ccc(NCc2c(-c3c(Cl)cccc3C(F)(F)F)noc2-c2cc[nH]c2)cc1

>  <unit info>
% flux

>  <reported>
36.1

$$$$
>  <compound>
O=C(O)c1ccc(/C=C/c2c(-c3c(Cl)cccc3C(F)(F)F)noc2-c2cc[nH]c2)cc1

>  <unit info>
% flux

>  <reported>
40.3

$$$$
>  <compound>
O=C(O)c1ccc(OCc2c(-c3c(Cl)cccc3C(F)(F)F)noc2-c2ccc[nH]2)cc1

>  <unit info>
% flux

>  <reported>
50.5

$$$$
>  <compound>
O=C(O)c1ccc(-c2nn(C(=O)c3c(Cl)cccc3C(F)(F)F)c3ccccc23)cc1 [Compound 1, reference compound]

>  <unit info>
% flux

>  <reported>
29.7

$$$$

(1) O=C(O)c1ccc(OCc2c(-c3c(Cl)cccc3C(F)(F)F)noc2-c2cc[nH]c2)cc1F
(2) O=C(O)c1ccc(OCc2c(-c3c(Cl)cccc3C(F)(F)F)noc2-c2cn[nH]c2)cc1
Query: # query: argmin of PAMPA (% flux) over 1 and 2 Give the label of your selection.
Result: 2
(2: 23.0 % flux, 1: 37.3 % flux)
